Target: T1, rat APJ receptor (rat, UniProt Q9JHG3 1-377)
T1 sequence (looked up): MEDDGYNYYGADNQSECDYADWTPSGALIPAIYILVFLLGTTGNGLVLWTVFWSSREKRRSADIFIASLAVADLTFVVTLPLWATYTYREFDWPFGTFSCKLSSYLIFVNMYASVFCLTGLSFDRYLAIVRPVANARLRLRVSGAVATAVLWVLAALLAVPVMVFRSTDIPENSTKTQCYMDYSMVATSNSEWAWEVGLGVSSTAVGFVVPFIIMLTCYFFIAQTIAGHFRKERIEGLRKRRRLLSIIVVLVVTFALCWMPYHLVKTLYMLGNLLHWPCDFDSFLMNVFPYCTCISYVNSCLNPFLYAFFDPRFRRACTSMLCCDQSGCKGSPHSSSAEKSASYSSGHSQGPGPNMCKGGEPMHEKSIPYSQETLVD
Assay: cell-based or functional assay
Starred links: 1 amine or outer side, 2 acyl side, 3 side chain; linkers in the order of their positions; H or OH if unused. Non-standard residues stand in square brackets, D forms with d. Primed or numbered codes have the meaning given here. *: point of attachment. AC4Abu = α-carboxy-4-aminobutyric acid, O=C(C(CCN[*:1])C(=O)[*:3])[*:2]; Oic = O=C(O)[C@@H]1C[C@@H]2CCCC[C@@H]2N1; Phe(4-Cl) = N[C@@H](Cc1ccc(Cl)cc1)C(=O)O; γGlu = O=C(O)[C@H](CCC(=O)[*:2])N[*:1]; 2Nal = N[C@@H](Cc1ccc2ccccc2c1)C(=O)O; NMeR = CN[C@@H](CCCNC(=N)N)C(=O)O; Tridecanoyl = CCCCCCCCCCCCC(=O)*; hArg = N=C(N)NCCCC[C@H](N)C(=O)O; Cha = N[C@@H](CC1CCCCC1)C(=O)O; αMeL = CC(C)C[C@](C)(N)C(=O)O; Aic = NC1(C(=O)O)Cc2ccccc2C1; αMeP = C[C@@]1(C(=O)O)CCCN1; AC4Abu″ = not defined here; Nle = CCCC[C@H](N)C(=O)O; Orn = NCCC[C@H](N)C(=O)O; Pip′ = not defined here; AEEA = NCCOCCOCC(=O)O; BLeu = β-leucine
// assign yes (1) if EC50 Rat APJ Receptor (GTPγS assay) falls strictly below 1 nM, else no (0) (ties count as no (0))

# TODO verify EC50 Rat APJ Receptor (GTPγS assay) < 1 nM strictly for this binder: Tridecanoyl-[γGlu][AEEA][AEEA]QRP[NMeR][Cha]SHKG[Oic][Nle][Pip′][Phe(4-Cl)]-OH [Apelin polypeptide SEQ ID NO: 445]
no (0)

Also XXXQRPRLSHKGPXXF ({TDA}[AC4Abu][Aeea][Aeea]QRP[NMeArg]LSHKGP[Nle][Pip][4-Cl-F]{COOH}) [Apelin polypeptide SEQ ID NO: 429] , if possible.
yes (1)

Also XXXQRPRLSHKGPXPF ({TDA}[AC4Abu][Aeea][Aeea]Q[NMehArg]P[NMeArg][aMeLeu]SHKGP[Nle]P[4-Cl-F]{COOH}) [Apelin polypeptide SEQ ID NO: 484] , if possible.
yes (1)

Also Tridecanoyl-[AC4Abu][AEEA][AEEA]QR[NMeR][αMeL]SHKG[Oic][Nle]P[Phe(4-Cl)]-OH (SMILES CCCCCCCCCCCCC(=O)NCCC(C(=O)O)C(=O)NCCOCCOCC(=O)NCCOCCOCC(=O)N[C@@H](CCC(N)=O)C(=O)N[C@@H](CCCNC(=N)N)C(=O)N(C)[C@@H](CCCNC(=N)N)C(=O)N[C@@](C)(CC(C)C)C(=O)N[C@@H](CO)C(=O)N[C@@H](Cc1c[nH]cn1)C(=O)N[C@@H](CCCCN)C(=O)NCC(=O)N1[C@H](C(=O)N[C@@H](CCCC)C(=O)N2CCC[C@H]2C(=O)N[C@@H](Cc2ccc(Cl)cc2)C(=O)O)C[C@@H]2CCCC[C@@H]21) [Apelin polypeptide SEQ ID NO: 396] , if possible.
no (0)

Also Tridecanoyl-[γGlu][AEEA][AEEA][dQ]R[αMeP][hArg][BLeu]SHKG[Oic][Nle][Phe(4-Cl)]-OH [Apelin polypeptide SEQ ID NO: 519] , if possible.
no (0)

Also Tridecanoyl-[γGlu][AEEA][AEEA]QRP[NMeR][BLeu]SHKG[Oic][Nle]P[Phe(4-Cl)]-OH [Apelin polypeptide SEQ ID NO: 391] , if possible.
no (0)

Also Tridecanoyl-[γGlu][AEEA][AEEA][dQ][hArg]P[dR][Cha]SHKG[Oic][Nle]P[Oic]-OH [Apelin polypeptide SEQ ID NO: 365] , if possible.
no (0)

Also Tridecanoyl-[γGlu][AEEA][AEEA][Orn]F[hArg][hArg][BLeu][hArg]P[hArg][Cha]SHKG[Oic][Nle]P[Phe(4-Cl)]-OH [Apelin polypeptide SEQ ID NO: 307] , if possible.
yes (1)

Also Tridecanoyl-[γGlu][AEEA][AEEA][dQ]RP[NMeR][Cha]SHKG[αMeP][Nle][Phe(4-Cl)]-OH (SMILES CCCCCCCCCCCCC(=O)N[C@@H](CCC(=O)NCCOCCOCC(=O)NCCOCCOCC(=O)N[C@H](CCC(N)=O)C(=O)N[C@@H](CCCNC(=N)N)C(=O)N1CCC[C@H]1C(=O)N(C)[C@@H](CCCNC(=N)N)C(=O)N[C@@H](CC1CCCCC1)C(=O)N[C@@H](CO)C(=O)N[C@@H](Cc1c[nH]cn1)C(=O)N[C@@H](CCCCN)C(=O)NCC(=O)N1CCC[C@@]1(C)C(=O)N[C@@H](CCCC)C(=O)N[C@@H](Cc1ccc(Cl)cc1)C(=O)O)C(=O)O) [Apelin polypeptide SEQ ID NO: 551] , if possible.
no (0)

Also Tridecanoyl-[γGlu][AEEA][AEEA][dQ][hArg]P[dR][Cha]SHKG[Oic][Nle][Aic]-OH (SMILES CCCCCCCCCCCCC(=O)N[C@@H](CCC(=O)NCCOCCOCC(=O)NCCOCCOCC(=O)N[C@H](CCC(N)=O)C(=O)N[C@@H](CCCCNC(=N)N)C(=O)N1CCC[C@H]1C(=O)N[C@H](CCCNC(=N)N)C(=O)N[C@@H](CC1CCCCC1)C(=O)N[C@@H](CO)C(=O)N[C@@H](Cc1c[nH]cn1)C(=O)N[C@@H](CCCCN)C(=O)NCC(=O)N1[C@H](C(=O)N[C@@H](CCCC)C(=O)NC2(C(=O)O)Cc3ccccc3C2)C[C@@H]2CCCC[C@@H]21)C(=O)O) [Apelin polypeptide SEQ ID NO: 595] , if possible.
no (0)

Also Tridecanoyl-[AC4Abu″][AEEA][AEEA]QRP[NMeR][Cha]SHKG[Pip′][Nle]P[Phe(4-Cl)]-OH (reading uncertain) [Apelin polypeptide SEQ ID NO: 416] , if possible.
yes (1)

Also Tridecanoyl-[γGlu][AEEA][AEEA]QRP[NMeR][αMeL]SHKGP[Nle]P[2Nal]-OH (SMILES CCCCCCCCCCCCC(=O)N[C@@H](CCC(=O)NCCOCCOCC(=O)NCCOCCOCC(=O)N[C@@H](CCC(N)=O)C(=O)N[C@@H](CCCNC(=N)N)C(=O)N1CCC[C@H]1C(=O)N(C)[C@@H](CCCNC(=N)N)C(=O)N[C@@](C)(CC(C)C)C(=O)N[C@@H](CO)C(=O)N[C@@H](Cc1c[nH]cn1)C(=O)N[C@@H](CCCCN)C(=O)NCC(=O)N1CCC[C@H]1C(=O)N[C@@H](CCCC)C(=O)N1CCC[C@H]1C(=O)N[C@@H](Cc1ccc2ccccc2c1)C(=O)O)C(=O)O) [Apelin polypeptide SEQ ID NO: 472] , if possible.
yes (1)
